Test system: PSN1
Test details: Cytotoxicity against human PSN1 cells grown in nutrient-deprived medium after 24 hrs by WST8 assay
Format: functional
Provide the reported PC50 of each item.
Field: numeric (µM). Do not append units.

// PC50 value for O=C(OCC1=C[C@H](O)[C@H](O)[C@@H](OC(=O)c2ccccc2)[C@@H]1O)c1ccccc1 : 152

So, C/C(=C\COC(=O)/C=C/c1ccccc1)COC(=O)c1ccccc1 ? Its PC50 was 143

Quick note, PC50 for CO[C@@H]1C=C(COC(=O)c2ccccc2)[C@H](OC(C)=O)[C@H](OC(=O)c2ccccc2)[C@@H]1O landed at 158
